Numbers sourced from patent US20090252680A1.

Reported logPoctanol value values follow for various compounds
Assay: Measurement of partition coefficient based on the octanol extraction method
Conditions: octanol / 10 mmol/L phosphate buffer (pH 7.4)
Number, no unit, nothing else.

As a guide, the following entries are already answered.
[[record]]
compound = "CN(C)c1ccc(-c2cn3cc([123I])ccc3n2)cc1 [[^123I]-IMPY, reference compound]"
recorded_metric = "logPoctanol value"
measured = 1.9

[[record]]
compound = "Fc1ccc(-c2cn3cc([123I])ccc3n2)cc1"
recorded_metric = "logPoctanol value"
measured = 2.3

[[record]]
compound = "COc1ccc2nc(-c3ccc([123I])cc3)cn2c1"
recorded_metric = "logPoctanol value"
measured = 2.3


Request: Given the compound COc1ccc(-c2cn3cc([123I])ccc3n2)cc1 , what is its reported logPoctanol value?
Result: 1.7

====

Assay: Measurement of transferability into brain and clearance
Settings: rats, intravenous injection (tail vein), 30 min after injection
Recorded metric: Radioactive accumulation per unit weight of brain, after 30 min. (% ID/g)
Please respond with the number in % ID/g and leave the unit unwritten.

As a guide, the following entries are already answered.
[[record]]
compound = "COc1ccc(-c2cn3cc([123I])ccc3n2)cc1"
measured = 0.12

[[record]]
compound = "COc1ccc2nc(-c3ccc([123I])cc3)cn2c1"
measured = 0.19

[[record]]
compound = "CN(C)c1ccc(-c2cn3cc([123I])ccc3n2)cc1 [[^123I]-IMPY, reference compound]"
measured = 0.23


# context switch: different compound, same Radioactive accumulation per unit weight of brain, after 30 min.
Request: Given the compound Fc1ccc(-c2cn3cc([123I])ccc3n2)cc1 , what is its reported Radioactive accumulation per unit weight of brain, after 30 min.?
Result: 0.12

====

Experiment: Measurement of transferability into brain and clearance
Settings: rats, intravenous injection (tail vein), 5 min after injection
Reported Radioactive accumulation per unit weight of brain, after 5 min. values follow for various compounds
Value and unit, in that order.

[[record]]
compound = "Fc1ccc(-c2cn3cc([123I])ccc3n2)cc1"
measured = "0.72 % ID/g"

[[record]]
compound = "COc1ccc2nc(-c3ccc([123I])cc3)cn2c1"
measured = "0.89 % ID/g"

[[record]]
compound = "CN(C)c1ccc(-c2cn3cc([123I])ccc3n2)cc1 [[^123I]-IMPY, reference compound]"
measured = "0.97 % ID/g"


# context switch: different compound, same Radioactive accumulation per unit weight of brain, after 5 min.
Request: Given the compound COc1ccc(-c2cn3cc([123I])ccc3n2)cc1 , what is its reported Radioactive accumulation per unit weight of brain, after 5 min.?
Result: 0.72 % ID/g

====

Test: Measurement of transferability into brain and clearance
Conditions: rats, intravenous injection (tail vein), 60 min after injection
Reported Radioactive accumulation per unit weight of brain, after 60 min. values follow for various compounds
Please respond with the number in % ID/g and leave the unit unwritten.

[[record]]
compound = "COc1ccc2nc(-c3ccc([123I])cc3)cn2c1"
scale_unit = "% ID/g"
measured = 0.09


Request: Given the compound Fc1ccc(-c2cn3cc([123I])ccc3n2)cc1 , what is its reported Radioactive accumulation per unit weight of brain, after 60 min.?
Result: 0.05

Request: Could you do the same for CN(C)c1ccc(-c2cn3cc([123I])ccc3n2)cc1 [[^123I]-IMPY, reference compound] , please?
Result: 0.09

Request: Could you do the same for COc1ccc(-c2cn3cc([123I])ccc3n2)cc1 , please?
Result: 0.04
